All figures here come from patent US20260048051A1.

Test: Plasma and tissue distribution in SD rats
Format: in vivo
Conditions: male SD rat, PO 10 mg/kg, Lung
Recorded Metric: Tmax
Reply with the number, then its unit.

Which Tmax value belongs to C[C@@H](c1ccc(Nc2cc(Nc3ncccc3S(C)(=O)=O)ncn2)nc1)N1CC2(COC2)C1 [Compound 1] ?
30 min

###

Assay: Plasma and tissue distribution in SD rats
Format: in vivo
Conditions: male, Sprague-Dawley (SD); M SD rat, Brain
Recorded Metric: Tmax (min)
Write the value in min as a bare number.

Which Tmax value belongs to C[C@@H](c1ccc(Nc2cc(Nc3ncc(F)cc3S(C)(=O)=O)ncn2)nc1)N1CC2(COC2)C1 ?
30

###

Assay: Plasma and tissue distribution in SD rats
Type: in vivo
Details: male, Sprague-Dawley (SD), large intestine; M SD rat, L. Intestine
Recorded Metric: Tmax (h)
Write the value in h as a bare number.

Which Tmax value belongs to C[C@@H](c1ccc(Nc2cc(Nc3ncc(F)cc3S(C)(=O)=O)ncn2)nc1)N1CC2(COC2)C1 [Compound 2] ?
8
